# assay.details: recombinant barcode read abundance after kanamycin selection (control-corrected) (log10(CPM+1)); higher = more efficient recombination; sequences stand for … in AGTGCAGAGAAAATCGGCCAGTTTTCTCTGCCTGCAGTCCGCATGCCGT…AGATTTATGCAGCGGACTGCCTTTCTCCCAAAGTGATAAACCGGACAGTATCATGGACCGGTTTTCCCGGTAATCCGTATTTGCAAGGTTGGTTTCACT; site = the 11-nt target;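 note: IS621 recombinase and bridge RNA in Escherichia coli cells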
outcome.measure: recombinant barcode read abundance (log10)

>  <record.sequence>
CTCGTGACTTGGGTTCTAACCTGTTGCCT (site CTCGTGACTAG)

>  <observed.value>
1.13

$$$$
>  <record.sequence>
ATATGAGCTTGGGTTCTAACCTGTTGCTT (site ACATGACCTAA)

>  <observed.value>
0.177

$$$$
>  <record.sequence>
TAGCTCACTTGGGTTCTAACCTGTTGCAT (site TAGGTCACTAT)

>  <observed.value>
0.181

$$$$
>  <record.sequence>
TGACCCTCTTGGGTTCTAACCTGTTGCCT (site AGACCCTCTAG)

>  <observed.value>
0.703

$$$$
>  <record.sequence>
GGCAGTTCTTGGGTTCTAACCTGTTGCTT (site GGCAGCTCTAA)

>  <observed.value>
0.0661

$$$$
>  <record.sequence>
TATTCTCCTTGGGTTCTAACCTGTTGCAT (site TATTCTCCTAT)

>  <observed.value>
0.186

$$$$
>  <record.sequence>
AGGGAGACTTGGGTTCTAACCTGTTGCCA (site AGGCAGACTTG)

>  <observed.value>
0.0382

$$$$
>  <record.sequence>
GTGTGTCCTTGGGTTCTAACCTGTTGCAT (site GTGTCTCCTAT)

>  <observed.value>
0.122

$$$$
>  <record.sequence>
GTGAACTCTTGGGTTCTAACCTGTTGCCT (site GTCAACTCTAG)

>  <observed.value>
0.0453

$$$$
>  <record.sequence>
GGACCTCCTTGGGTTCTAACCTGTTGCTT (site GGACCTCCTAA)

>  <observed.value>
1.33

$$$$
